Reference source: patent US20250353864A1

- target.or.test.system: EGFR L858R/T790M/C797S mutant (Homo sapiens (Human), UniProt P00533, C797S/L858R/T790M)
- Sequence (P00533 25-1210 T790M/C797S/L858R): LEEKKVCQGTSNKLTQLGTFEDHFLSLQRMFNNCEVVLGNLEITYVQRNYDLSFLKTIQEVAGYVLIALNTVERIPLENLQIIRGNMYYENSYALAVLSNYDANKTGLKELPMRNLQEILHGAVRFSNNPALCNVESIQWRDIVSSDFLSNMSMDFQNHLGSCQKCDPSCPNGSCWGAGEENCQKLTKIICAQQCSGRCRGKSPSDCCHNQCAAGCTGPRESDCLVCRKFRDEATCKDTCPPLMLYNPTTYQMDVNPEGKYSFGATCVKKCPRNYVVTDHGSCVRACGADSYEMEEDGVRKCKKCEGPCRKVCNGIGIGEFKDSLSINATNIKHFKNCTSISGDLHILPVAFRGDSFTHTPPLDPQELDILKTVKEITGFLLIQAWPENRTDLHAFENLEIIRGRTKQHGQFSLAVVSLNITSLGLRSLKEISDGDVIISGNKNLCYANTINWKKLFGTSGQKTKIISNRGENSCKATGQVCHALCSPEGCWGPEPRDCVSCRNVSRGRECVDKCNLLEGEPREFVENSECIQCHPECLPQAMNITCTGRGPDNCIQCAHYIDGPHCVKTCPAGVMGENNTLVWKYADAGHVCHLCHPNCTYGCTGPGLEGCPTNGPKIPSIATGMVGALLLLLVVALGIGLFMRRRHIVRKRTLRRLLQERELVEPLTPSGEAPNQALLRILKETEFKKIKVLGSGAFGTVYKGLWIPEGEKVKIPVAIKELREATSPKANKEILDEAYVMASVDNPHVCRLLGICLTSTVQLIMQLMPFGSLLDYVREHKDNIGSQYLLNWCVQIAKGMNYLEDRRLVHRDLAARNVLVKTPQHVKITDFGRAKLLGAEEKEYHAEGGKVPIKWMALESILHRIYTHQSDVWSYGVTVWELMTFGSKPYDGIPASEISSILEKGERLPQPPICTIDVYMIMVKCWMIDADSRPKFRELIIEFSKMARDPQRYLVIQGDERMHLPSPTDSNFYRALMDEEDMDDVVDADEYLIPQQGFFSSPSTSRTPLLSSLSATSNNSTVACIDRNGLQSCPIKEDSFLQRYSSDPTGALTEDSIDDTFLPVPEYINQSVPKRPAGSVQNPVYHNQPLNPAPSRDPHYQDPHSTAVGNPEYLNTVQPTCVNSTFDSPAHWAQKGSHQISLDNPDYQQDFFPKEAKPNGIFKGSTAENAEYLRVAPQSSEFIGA
- protocol.description: HotSpot radiometric kinase assay, EGFR L858R/T790M/C797S mutant
- settings: 10 μM ATP
- Method: Biochemical Assays for Inhibition of Wild-Type and Mutant EGFRs Briefly, specific kinase/substrate pairs along with required cofactors were prepared in reaction buffer; 20 mM Hepes pH 7.5, 10 mM […], 1 mM EGTA, 0.02% Brij35, 0.02 mg/ml BSA, 0.1 mM Na3VO4, 2 mM DTT, 1% DMSO. Compounds were delivered into the reaction, followed […] later by addition of a mixture of ATP (Sigma, St. Louis MO) and ^33P ATP (Perkin Elmer, Waltham MA) to a final concentration of 10 μM. […]
pIC50: −log10 of the molar value.
readout.name: pIC50

compound: CCOc1nn(CC(C)(C)O)c2c1/C=C/c1n[nH]c3ccc(cc13)-c1cnn(C)c1O[C@@H](C)CN(CC)C2 [Example 222]
pIC50: 9.74

(A) C[C@H]1CN(C)Cc2c(c(O)nn2CCO)/C=C/c2n[nH]c3ccc(cc23)-c2cnn(C)c2O1 [Example 186]
(B) CCOc1nn(CCO)c2c1/C=C/c1n[nH]c3cc(F)c(cc13)-c1c(C)nn(C)c1O[C@@H](C)CN(C(C)C)C2 [Example 239]
**Q:** Select one. Lower pIC50: A or B Provide the label of your selected option as the answer.
**A:** B
(B: 8.07, A: 9.34)

###

- target.or.test.system: EGFR Δ746-750/C797S mutant (Homo sapiens (Human), UniProt P00533, C797S/DEL746-750)
- Sequence (P00533 other isoform, or with tags, fused parts or gaps C797S/del 1-668/del 746-750 limits assumed): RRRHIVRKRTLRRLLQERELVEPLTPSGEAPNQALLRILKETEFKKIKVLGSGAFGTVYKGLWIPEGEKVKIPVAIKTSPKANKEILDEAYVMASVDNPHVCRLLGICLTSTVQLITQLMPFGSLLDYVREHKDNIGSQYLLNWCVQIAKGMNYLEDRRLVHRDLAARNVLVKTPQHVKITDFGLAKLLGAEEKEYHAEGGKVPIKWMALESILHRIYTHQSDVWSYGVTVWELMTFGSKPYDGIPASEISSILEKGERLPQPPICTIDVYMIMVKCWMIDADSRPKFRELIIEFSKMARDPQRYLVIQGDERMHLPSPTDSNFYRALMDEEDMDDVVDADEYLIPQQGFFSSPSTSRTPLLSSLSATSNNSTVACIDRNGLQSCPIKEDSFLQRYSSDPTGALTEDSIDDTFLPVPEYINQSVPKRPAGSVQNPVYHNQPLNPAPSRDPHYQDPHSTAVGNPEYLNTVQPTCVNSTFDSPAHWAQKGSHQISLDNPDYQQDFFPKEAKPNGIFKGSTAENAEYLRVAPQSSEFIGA
- protocol.description: HotSpot radiometric kinase assay, EGFR Δ746-750/C797S mutant
- Format: biochemical
- settings: 10 μM ATP
- Protocol: Biochemical Assays for Inhibition of Wild-Type and Mutant EGFRs Briefly, specific kinase/substrate pairs along with required cofactors were prepared in reaction buffer; 20 mM Hepes pH 7.5, 10 mM […], 1 mM EGTA, 0.02% Brij35, 0.02 mg/ml BSA, 0.1 mM Na3VO4, 2 mM DTT, 1% DMSO. Compounds were delivered into the reaction, followed […] later by addition of a mixture of ATP (Sigma, St. Louis MO) and ^33P ATP (Perkin Elmer, Waltham MA) to a final concentration of 10 μM. […]
pIC50: −log10 of the molar value.
readout.name: pIC50

Observe how each entry below is paired with its result.
compound: Cc1nn([C@H]2CCNC[C@@H]2O)c2c1/C=C/c1n[nH]c3ccc(cc13)-c1cnn(C)c1OCCCO2 (racemic)
target.or.test.system: EGFR Δ746-750/C797S mutant (Homo sapiens (Human), UniProt P00533, C797S/DEL746-750)
pIC50: 7.41

compound: Cc1nn(C)c2c1CN(C)C[C@H](C)Oc1c(cnn1C)-c1ccc3[nH]nc(c3c1)/C=C/2
target.or.test.system: EGFR Δ746-750/C797S mutant (Homo sapiens (Human), UniProt P00533, C797S/DEL746-750)
pIC50: 7.42

compound: Cc1c2c(nn1CCO)CN(C)C[C@H](C)Oc1c(cnn1C)-c1ccc3[nH]nc(c3c1)/C=C/2
target.or.test.system: EGFR Δ746-750/C797S mutant (Homo sapiens (Human), UniProt P00533, C797S/DEL746-750)
pIC50: 7.05

compound: Cc1nn(C)c2c1/C=C/c1n[nH]c3ccc(cc13)-c1c(C)nn(C)c1OCCN(C)C2
target.or.test.system: EGFR Δ746-750/C797S mutant (Homo sapiens (Human), UniProt P00533, C797S/DEL746-750)
pIC50: 6.03

compound: Cc1nn([C@H]2C[C@@H](N(C)CCN(C)C)C2)c2c1/C=C/c1n[nH]c3ccc(cc13)-c1cnn(C)c1OCCCO2
target.or.test.system: EGFR Δ746-750/C797S mutant (Homo sapiens (Human), UniProt P00533, C797S/DEL746-750)
pIC50: 6.77

(A) CCN1Cc2c(c(OC(C)C)nn2CCO)/C=C/c2n[nH]c3cc(F)c(cc23)-c2cnn(C)c2O[C@@H](C)C1
(B) Cc1nn(C2CCN(C)C2)c2c1/C=C/c1n[nH]c3ccc(cc13)-c1cnn(C)c1CN(C)CCO2 (stereo not drawn)
**Q:** Select one. Lower pIC50: A or B Provide the label of your selected option as the answer.
**A:** B
(B: 7.50, A: 9.20)

(P) CCOc1nn(CCO)c2c1/C=C/c1n[nH]c3cc(F)c(cc13)-c1cnn(C)c1O[C@@H](C)CN(C)C2
(Q) CCOc1nn(C)c2c1/C=C/c1n[nH]c3ccc(cc13)-c1cnn(C)c1O[C@@H](C)CN(C(C)C)C2
(R) CCN1Cc2c(c(C)nn2CCO)/C=C/c2n[nH]c3ccc(cc23)-c2cnn(C)c2O[C@@H](C)C1
(S) CCc1nn(C)c2c1/C=C/c1n[nH]c3ccc(cc13)-c1cnn(C)c1OCC[C@@H](C)O2
**Q:** // ascending sort on recorded pIC50 I'd appreciate it if you listed the labels in the requested order.
**A:** S, Q, P, R
(S: 7.56, Q: 8.44, P: 9.16, R: 9.46)
